- assay system: Progesterone receptor (Homo sapiens)
- assay info: qHTS assay to identify small molecule antagonists of the progesterone receptor (PR) signaling pathway (AID 1346795)
- condition details: PR-UAS-bla HEK293T, beta-lactamase FRET ratio, 16 h; series mostly up to 92.4 µM
Records with an inconclusive call do not appear. Active and inactive are the calls of the source. The call rests on the fitted dose curve; in most records, active means well fitted inhibition curve with a large enough effect in the signal ratio in the repeat runs (not every such curve was filed as active); inconclusive means weak or mixed curves; inactive means flat fitted curve, though single readings scatter; the % refers to the signal ratio.
Classes used: T = active, F = inactive

[[record]]
query_smiles = "N#Cc1c(Cl)cccc1Cl"
cat = "F"

[[record]]
query_smiles = "CCN(CC)CCOC(=O)C(C)(c1ccccc1)c1ccccc1"
cat = "F"

[[record]]
query_smiles = "CCSC(=O)N(CC)C1CCCCC1"
cat = "F"

[[record]]
query_smiles = "CSc1ccc(C(=O)C(C)(C)N2CCOCC2)cc1"
cat = "T"

[[record]]
query_smiles = "CCCCc1ccc(O)cc1"
cat = "F"

[[record]]
query_smiles = "COc1cc(OC)nc(Oc2cccc(Oc3nc(OC)cc(OC)n3)c2C(=O)O)n1"
cat = "F"

[[record]]
query_smiles = "O=C1OC(c2ccc(O)c(S(=O)(=O)O)c2)(c2ccc(O)c(S(=O)(=O)O)c2)c2c(Br)c(Br)c(Br)c(Br)c21"
cat = "F"

[[record]]
query_smiles = "CC(C)[N+](=O)[O-]"
cat = "F"

[[record]]
query_smiles = "O=[N+]([O-])c1cc(Cl)c(Cl)c(Cl)c1"
cat = "F"

